Test system: Methicillin-Sensitive S. aureus (Newman)
Format: cell-based, Staphylococcus aureus
Settings: Newman
Numbered stars: 1 amine (or outer) side, 2 acyl side, 3 side chain; on linkers, the order of the positions; unused ones are H or OH. Square brackets hold non-standard residues; d marks the D form. Peptide text beside a SMILES is read from it. X1 = O=C([C@@H]1C[C@@]2(O)c3ccccc3N[C@H]2N1[*:1])[*:2]; X2 = O=C([C@H]1C[C@]2(O)c3ccccc3N[C@@H]2N1[*:1])[*:2]; X3 = O=C([C@@H]1C[C@H](O)CNN1[*:1])[*:2]; dPiz(5R-OH) = O=C(O)[C@H]1C[C@@H](O)CNN1; Lys(N3) = [N-]=[N+]=NCCCC[C@H](N)C(=O)O; dHiv = CC(C)[C@@H](O)C(=O)O; Hiv = CC(C)[C@H](O)C(=O)O
measured-endpoint: MIC (μg/mL) MSSA

Worked cases, answers included:
{"compound": "CC(C)[C@@H]1OC(=O)[C@@H](C(C)C)NC(=O)[C@@H]2C[C@@]3(O)c4ccccc4N[C@H]3N2C(=O)[C@@H]([C@H](C)O)NC(=O)[C@H](CCCCN=[N+]=[N-])NC(=O)[C@H]2C[C@@H](O)CNN2C1=O [(+)-31, Azido Cyclic Depsihexapeptide] (cyclo([Hiv][dPiz(5R-OH)][Lys(N3)][dT][X1][dV]))", "measured-endpoint": "MIC (μg/mL) MSSA", "result-value": ">64 µg/mL"}
{"compound": "CC(C)C[C@@H]1NC(=O)[C@H]2C[C@@H](O)CNN2C(=O)[C@H](C(C)C)N(C)C(=O)[C@@H](C(C)C)NC(=O)[C@@H]2C[C@@]3(O)c4cc(-c5ccc6c(c5)[C@]5(O)C[C@H]7C(=O)N[C@H](C(C)C)C(=O)N(C)[C@@H](C(C)C)C(=O)N8NC[C@H](O)C[C@@H]8C(=O)N[C@@H](CC(C)C)C(=O)N[C@H]([C@H](C)O)C(=O)N7[C@@H]5N6)ccc4N[C@H]3N2C(=O)[C@@H]([C@H](C)O)NC1=O [(−)-28, Himastatin N-Methyl Lactam Derivative]", "measured-endpoint": "MIC (μg/mL) MSSA", "result-value": ">64 µg/mL"}

Look up MIC (μg/mL) MSSA with Methicillin-Sensitive S. aureus (Newman) for this compound: CC(C)C[C@H]1NC(=O)[C@@H]2C[C@H](O)CNN2C(=O)[C@@H](C(C)C)OC(=O)[C@H](C(C)C)NC(=O)[C@H]2C[C@]3(O)c4ccccc4N[C@@H]3N2C(=O)[C@H]([C@@H](C)O)NC1=O [(−)-6, ent-himastatin monomer] (cyclo([dL]T[X2]V[dHiv][X3]))
>64 µg/mL

----------
Test system: Streptomyces himastatinicus (ATCC 53653)
Assay type: cell-based
Details: ATCC 53653, 72 h
Numbered stars: 1 amine (or outer) side, 2 acyl side, 3 side chain; on linkers, the order of the positions; unused ones are H or OH. Square brackets hold non-standard residues; d marks the D form. Peptide text beside a SMILES is read from it. X1 = O=C([C@@H]1C[C@@]2(O)c3ccccc3N[C@H]2N1[*:1])[*:2]; dPiz(5R-OH) = O=C(O)[C@H]1C[C@@H](O)CNN1; Lys(N3) = [N-]=[N+]=NCCCC[C@H](N)C(=O)O; Hiv = CC(C)[C@H](O)C(=O)O
measured-endpoint: MIC (μg/mL) S. himastatinicus

Recorded MIC (μg/mL) S. himastatinicus of CC(C)[C@@H]1OC(=O)[C@@H](C(C)C)NC(=O)[C@@H]2C[C@@]3(O)c4ccccc4N[C@H]3N2C(=O)[C@@H]([C@H](C)O)NC(=O)[C@H](CCCCN=[N+]=[N-])NC(=O)[C@H]2C[C@@H](O)CNN2C1=O [(+)-31, Azido Cyclic Depsihexapeptide] (cyclo([Hiv][dPiz(5R-OH)][Lys(N3)][dT][X1][dV])) , please.
>64 µg/mL

Dear colleague, I am looking for the recorded MIC (μg/mL) S. himastatinicus of the following compound: CC(C)C[C@@H]1NC(=O)[C@H]2C[C@@H](O)CNN2C(=O)[C@H](C(C)C)N(C)C(=O)[C@@H](C(C)C)NC(=O)[C@@H]2C[C@@]3(O)c4cc(-c5ccc6c(c5)[C@]5(O)C[C@H]7C(=O)N[C@H](C(C)C)C(=O)N(C)[C@@H](C(C)C)C(=O)N8NC[C@H](O)C[C@@H]8C(=O)N[C@@H](CC(C)C)C(=O)N[C@H]([C@H](C)O)C(=O)N7[C@@H]5N6)ccc4N[C@H]3N2C(=O)[C@@H]([C@H](C)O)NC1=O [(−)-28, Himastatin N-Methyl Lactam Derivative]
>64 µg/mL

Tell me the measured MIC (μg/mL) S. himastatinicus of CC(C)C[C@@H]1NC(=O)[C@H]2CCCN2C(=O)[C@H](C(C)C)OC(=O)[C@@H](C(C)C)NC(=O)[C@@H]2C[C@@]3(O)c4ccccc4N[C@H]3N2C(=O)[C@@H]([C@H](C)O)NC1=O [(+)-29, Proline Cyclic Depsihexapeptide] (cyclo([Hiv][dP]L[dT][X1][dV])) , please.
>64 µg/mL

----------
System: Streptomyces himastatinicus (ATCC 53653)
Assay type: cell-based
Conditions: ATCC 53653, 72 h
Numbered stars: 1 amine (or outer) side, 2 acyl side, 3 side chain; on linkers, the order of the positions; unused ones are H or OH. Square brackets hold non-standard residues; d marks the D form. Peptide text beside a SMILES is read from it. X1 = O=C([C@@H]1C[C@@]2(O)c3ccccc3N[C@H]2N1[*:1])[*:2]; dPiz(5R-OH) = O=C(O)[C@H]1C[C@@H](O)CNN1
measured-endpoint: MIC (μg/mL) S. himastatinicus

GET /values?readout=MIC (μg/mL) S. himastatinicus&item= CC(C)C[C@@H]1NC(=O)[C@H]2C[C@@H](O)CNN2C(=O)[C@H](C(C)C)NC(=O)[C@@H](C(C)C)NC(=O)[C@@H]2C[C@@]3(O)c4ccccc4N[C@H]3N2C(=O)[C@@H]([C@H](C)O)NC1=O [(+)-25, Cyclic Hexapeptide] (cyclo(L[dT][X1][dV]V[dPiz(5R-OH)]))
>64 µg/mL

----------
MIC (μg/mL) B. subtilis overview
System: Bacillus subtilis (ATCC 6633)
Format: cell-based
Settings: ATCC 6633
Numbered stars: 1 amine (or outer) side, 2 acyl side, 3 side chain; on linkers, the order of the positions; unused ones are H or OH. Square brackets hold non-standard residues; d marks the D form. Peptide text beside a SMILES is read from it. X1 = O=C([C@@H]1C[C@@]2(O)c3ccccc3N[C@H]2N1[*:1])[*:2]; Hiv = CC(C)[C@H](O)C(=O)O

Please review the following examples before continuing.
{"compound": "CC(C)C[C@@H]1NC(=O)[C@H]2C[C@@H](O)CNN2C(=O)[C@H](C(C)C)NC(=O)[C@@H](C(C)C)NC(=O)[C@@H]2C[C@@]3(O)c4cc(-c5ccc6c(c5)[C@]5(O)C[C@H]7C(=O)N[C@H](C(C)C)C(=O)N[C@@H](C(C)C)C(=O)N8NC[C@H](O)C[C@@H]8C(=O)N[C@@H](CC(C)C)C(=O)N[C@H]([C@H](C)O)C(=O)N7[C@@H]5N6)ccc4N[C@H]3N2C(=O)[C@@H]([C@H](C)O)NC1=O [(−)-26, Himastatin Lactam Derivative]", "MIC (μg/mL) B. subtilis": "8 µg/mL"}
{"compound": "CC(C)C[C@@H]1NC(=O)[C@H]2CCCN2C(=O)[C@H](C(C)C)OC(=O)[C@@H](C(C)C)NC(=O)[C@@H]2C[C@@]3(O)c4ccccc4N[C@H]3N2C(=O)[C@@H]([C@H](C)O)NC1=O [(+)-29, Proline Cyclic Depsihexapeptide] (cyclo([Hiv][dP]L[dT][X1][dV]))", "MIC (μg/mL) B. subtilis": ">64 µg/mL"}

Now for the compound whose MIC (μg/mL) B. subtilis we want.
Any idea what MIC (μg/mL) B. subtilis came out for CC(C)C[C@@H]1NC(=O)[C@H]2C[C@@H](O)CNN2C(=O)[C@H](C(C)C)N(C)C(=O)[C@@H](C(C)C)NC(=O)[C@@H]2C[C@@]3(O)c4cc(-c5ccc6c(c5)[C@]5(O)C[C@H]7C(=O)N[C@H](C(C)C)C(=O)N(C)[C@@H](C(C)C)C(=O)N8NC[C@H](O)C[C@@H]8C(=O)N[C@@H](CC(C)C)C(=O)N[C@H]([C@H](C)O)C(=O)N7[C@@H]5N6)ccc4N[C@H]3N2C(=O)[C@@H]([C@H](C)O)NC1=O [(−)-28, Himastatin N-Methyl Lactam Derivative] on Bacillus subtilis (ATCC 6633)?
>64 µg/mL

----------
Tested on: Vancomycin-Sensitive E. faecalis (T7)
Assay type: cell-based, Enterococcus faecalis
Settings: Vancomycin-Sensitive (T7)
Numbered stars: 1 amine (or outer) side, 2 acyl side, 3 side chain; on linkers, the order of the positions; unused ones are H or OH. Square brackets hold non-standard residues; d marks the D form. Peptide text beside a SMILES is read from it. X1 = O=C([C@@H]1C[C@@]2(O)c3ccccc3N[C@H]2N1[*:1])[*:2]; X2 = O=C([C@H]1C[C@]2(O)c3ccccc3N[C@@H]2N1[*:1])[*:2]; X3 = O=C([C@@H]1C[C@H](O)CNN1[*:1])[*:2]; dPiz(5R-OH) = O=C(O)[C@H]1C[C@@H](O)CNN1; Lys(N3) = [N-]=[N+]=NCCCC[C@H](N)C(=O)O; dHiv = CC(C)[C@@H](O)C(=O)O; Hiv = CC(C)[C@H](O)C(=O)O
# key: entry, value: MIC (μg/mL) VSE faecalis

{"molecule": "CC(C)C[C@@H]1NC(=O)[C@H]2C[C@@H](O)CNN2C(=O)[C@H](C(C)C)NC(=O)[C@@H](C(C)C)NC(=O)[C@@H]2C[C@@]3(O)c4ccccc4N[C@H]3N2C(=O)[C@@H]([C@H](C)O)NC1=O [(+)-25, Cyclic Hexapeptide] (cyclo(L[dT][X1][dV]V[dPiz(5R-OH)]))", "MIC (μg/mL) VSE faecalis": ">64 µg/mL"}

Value lookup for MIC (μg/mL) VSE faecalis; key = CC(C)C[C@@H]1NC(=O)[C@H]2C[C@@H](O)CNN2C(=O)[C@H](C(C)C)NC(=O)[C@@H](C(C)C)NC(=O)[C@@H]2C[C@@]3(O)c4cc(-c5ccc6c(c5)[C@]5(O)C[C@H]7C(=O)N[C@H](C(C)C)C(=O)N[C@@H](C(C)C)C(=O)N8NC[C@H](O)C[C@@H]8C(=O)N[C@@H](CC(C)C)C(=O)N[C@H]([C@H](C)O)C(=O)N7[C@@H]5N6)ccc4N[C@H]3N2C(=O)[C@@H]([C@H](C)O)NC1=O [(−)-26, Himastatin Lactam Derivative]
16 µg/mL

What does the record list as MIC (μg/mL) VSE faecalis for CC(C)C[C@@H]1NC(=O)[C@H]2C[C@@H](O)CNN2C(=O)[C@H](C(C)C)OC(=O)[C@@H](C(C)C)NC(=O)[C@@H]2C[C@@]3(O)c4ccccc4N[C@H]3N2C(=O)[C@@H]([C@H](C)O)NC1=O [(+)-6, Himastatin Monomer, reference compound] (cyclo([Hiv][dPiz(5R-OH)]L[dT][X1][dV])) ?
>64 µg/mL

GET /values?readout=MIC (μg/mL) VSE faecalis&item= CC(C)C[C@@H]1NC(=O)[C@H]2CCCN2C(=O)[C@H](C(C)C)OC(=O)[C@@H](C(C)C)NC(=O)[C@@H]2C[C@@]3(O)c4ccccc4N[C@H]3N2C(=O)[C@@H]([C@H](C)O)NC1=O [(+)-29, Proline Cyclic Depsihexapeptide] (cyclo([Hiv][dP]L[dT][X1][dV]))
>64 µg/mL

Form field: reported MIC (μg/mL) VSE faecalis of CC(C)C[C@H]1NC(=O)[C@@H]2C[C@H](O)CNN2C(=O)[C@@H](C(C)C)OC(=O)[C@H](C(C)C)NC(=O)[C@H]2C[C@]3(O)c4ccccc4N[C@@H]3N2C(=O)[C@H]([C@@H](C)O)NC1=O [(−)-6, ent-himastatin monomer] (cyclo([dL]T[X2]V[dHiv][X3]))
>64 µg/mL

MIC (μg/mL) VSE faecalis lookup needed for CC(C)[C@@H]1OC(=O)[C@@H](C(C)C)NC(=O)[C@@H]2C[C@@]3(O)c4ccccc4N[C@H]3N2C(=O)[C@@H]([C@H](C)O)NC(=O)[C@H](CCCCN=[N+]=[N-])NC(=O)[C@H]2C[C@@H](O)CNN2C1=O [(+)-31, Azido Cyclic Depsihexapeptide] (cyclo([Hiv][dPiz(5R-OH)][Lys(N3)][dT][X1][dV])) , thanks.
>64 µg/mL

Which MIC (μg/mL) VSE faecalis is reported for this molecule? CC(C)[C@@H]1OC(=O)[C@@H](C(C)C)NC(=O)[C@@H]2C[C@@]3(O)c4cc(-c5ccc6c(c5)[C@]5(O)C[C@H]7C(=O)N[C@H](C(C)C)C(=O)O[C@@H](C(C)C)C(=O)N8NC[C@H](O)C[C@@H]8C(=O)N[C@@H](CCCCN=[N+]=[N-])C(=O)N[C@H]([C@H](C)O)C(=O)N7[C@@H]5N6)ccc4N[C@H]3N2C(=O)[C@@H]([C@H](C)O)NC(=O)[C@H](CCCCN=[N+]=[N-])NC(=O)[C@H]2C[C@@H](O)CNN2C1=O [(−)-32, Himastatin ε-Azidolysine Derivative]
0.5 µg/mL
